B1: TPR t1 (parent)
chain: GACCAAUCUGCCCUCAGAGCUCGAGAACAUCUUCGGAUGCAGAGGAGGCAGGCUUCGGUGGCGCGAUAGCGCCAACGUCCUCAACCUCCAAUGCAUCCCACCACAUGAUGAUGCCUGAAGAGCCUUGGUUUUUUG

variants of: B1; assay: polymerase ribozyme fitness, log enrichment relative to wild type (log ratio); higher = more active; in vitro selection for triplet polymerase activity
polymerase ribozyme fitness (log ratio): recorded values
readout name: polymerase ribozyme fitness (log ratio)

[[record]]
mutation_key = "A37U U131C"
readout_number = -0.648

[[record]]
mutation_key = "C94A C114A G122A"
readout_number = -3

[[record]]
mutation_key = "G58C U78G A90C A118U G127C"
readout_number = -2.89

[[record]]
mutation_key = "G17A A41U A84C"
readout_number = -4.63

[[record]]
mutation_key = "G71U G93U"
readout_number = -0.956

[[record]]
mutation_key = "G52U G60U"
readout_number = -0.578

[[record]]
mutation_key = "G60C A66G"
readout_number = -1.22

[[record]]
mutation_key = "G10U U21G A46U"
readout_number = -3.02

[[record]]
mutation_key = "A83G C86A G113A"
readout_number = -2.01

[[record]]
mutation_key = "C70A C86A"
readout_number = -2.39

[[record]]
mutation_key = "C28U A74U"
readout_number = -2.33

[[record]]
mutation_key = "C11G C34A G61U C62U C80G C86U G120A"
readout_number = -6.66

[[record]]
mutation_key = "C11G U38G C79U"
readout_number = -1.02

[[record]]
mutation_key = "U9C C28U G36U A121G"
readout_number = 0.0298

[[record]]
mutation_key = "A50C C73A A74U"
readout_number = -1.27

[[record]]
mutation_key = "G61U A121U"
readout_number = 1.48

[[record]]
mutation_key = "C22A G44C A46U C101A A121C"
readout_number = -4.64

[[record]]
mutation_key = "G36U G120U"
readout_number = 0.153

[[record]]
mutation_key = "A2U C8U G36U C80U G127C U130C"
readout_number = -3.03

[[record]]
mutation_key = "C34A U59A C114A"
readout_number = -5.37

[[record]]
mutation_key = "C62U C85A"
readout_number = -2.09

[[record]]
mutation_key = "C40A A41U G69U G135C"
readout_number = -0.488

[[record]]
mutation_key = "U54A C56U"
readout_number = -0.589

[[record]]
mutation_key = "C20A G69A"
readout_number = -5.6

[[record]]
mutation_key = "U9A G36A G113A"
readout_number = -0.728

[[record]]
mutation_key = "G36A C89U C94G C114U"
readout_number = -5.66

[[record]]
mutation_key = "A16C G58C"
readout_number = -2.65

[[record]]
mutation_key = "G71A U131G"
readout_number = -1.27

[[record]]
mutation_key = "C11U G42A C85G"
readout_number = -3.59

[[record]]
mutation_key = "A18U C72U C97U"
readout_number = -3.15

[[record]]
mutation_key = "C3U U92C"
readout_number = -1.23

[[record]]
mutation_key = "C11U C94A C102A"
readout_number = -3.51

[[record]]
mutation_key = "C31G G120A"
readout_number = -5.69

[[record]]
mutation_key = "U9G C12U C13G G47C C56U"
readout_number = -1.38

[[record]]
mutation_key = "A6C U9C A46C C62U C82U"
readout_number = -0.79

[[record]]
mutation_key = "C12U C56A G63U C89U C124A"
readout_number = -4.63

[[record]]
mutation_key = "A2G C56G"
readout_number = -1.69

[[record]]
mutation_key = "C15U G39C G71A"
readout_number = -2.36

[[record]]
mutation_key = "A5U C12U U125A"
readout_number = -0.727

[[record]]
mutation_key = "C56G C64U"
readout_number = -0.732

[[record]]
mutation_key = "U9G G45A G93U C114A"
readout_number = -2.75

[[record]]
mutation_key = "G69A U106C C114A G120C"
readout_number = -3.12

[[record]]
mutation_key = "G51U U112A A118U"
readout_number = -3.5

[[record]]
mutation_key = "A6U U59C A119G"
readout_number = 0.571

[[record]]
mutation_key = "U7A C56A A121G"
readout_number = 1.68

[[record]]
mutation_key = "G47U A100C U106A C124G"
readout_number = 0.694

[[record]]
mutation_key = "A103U A119U"
readout_number = -5.64

[[record]]
mutation_key = "A46C C49U A121U"
readout_number = 0.936

[[record]]
mutation_key = "A29C C53U C80U A90G"
readout_number = -3.07

[[record]]
mutation_key = "A46G A90G"
readout_number = 0.482

[[record]]
mutation_key = "U7A C12A C28G G58A U87G G120U"
readout_number = -1.72

[[record]]
mutation_key = "C4U A24U C70G U92G U116C G120C"
readout_number = -6.86

[[record]]
mutation_key = "C73G A83U C88G U130A"
readout_number = -3.2

[[record]]
mutation_key = "G36U G71U G117A"
readout_number = -4.25

[[record]]
mutation_key = "U32G A37G G113C"
readout_number = -5.08

[[record]]
mutation_key = "C13U G39A G58U C79G C97U"
readout_number = -2.64

[[record]]
mutation_key = "C8G U21A U38G C76U C88A U112G A121C"
readout_number = -4.14

[[record]]
mutation_key = "U81G A95U"
readout_number = -6.29

[[record]]
mutation_key = "U7G C12G G17U U21G G69U C86U C124A"
readout_number = -6.15

[[record]]
mutation_key = "U54G C79A"
readout_number = -2.11

[[record]]
mutation_key = "A6C G17C U87C"
readout_number = -3.71

[[record]]
mutation_key = "G44U A50U C101A C115A"
readout_number = -2.8

[[record]]
mutation_key = "C53U C64A C72U A95C A105C G122U C123G"
readout_number = -6.4

[[record]]
mutation_key = "G36A C72G U92A"
readout_number = -5.43

[[record]]
mutation_key = "G39A C56U"
readout_number = -0.755

[[record]]
mutation_key = "C8G C56G"
readout_number = 0.255

[[record]]
mutation_key = "G48U A84C C114U U116G U132A"
readout_number = -7.04

[[record]]
mutation_key = "G39U A43C C62U G127A"
readout_number = -4.5

[[record]]
mutation_key = "C79G U126A G128U"
readout_number = -4.31

[[record]]
mutation_key = "U32G U33C A43U A91U C124U"
readout_number = -5.75

[[record]]
mutation_key = "U7A C8A C11G G47U G57U C62U C85A"
readout_number = -1.82

[[record]]
mutation_key = "G23U G51A C70A C101A G110A C114A"
readout_number = -6.74

[[record]]
mutation_key = "C76U C123G"
readout_number = 0.558

[[record]]
mutation_key = "C70A U96A"
readout_number = -2.63

[[record]]
mutation_key = "G35A C72G"
readout_number = -2.69

[[record]]
mutation_key = "G47A C101U G122A"
readout_number = -1.99

[[record]]
mutation_key = "C34U C64U C88U"
readout_number = -4.34

[[record]]
mutation_key = "G69C C76U"
readout_number = -4.07

[[record]]
mutation_key = "C3A C8A C11G C22A G45U C88G"
readout_number = -5.16

[[record]]
mutation_key = "G57U C70G C124G"
readout_number = -2.06

[[record]]
mutation_key = "G61A C79A"
readout_number = -2.09

[[record]]
mutation_key = "G48C U81A G127C"
readout_number = -3.51

[[record]]
mutation_key = "A6G A46U"
readout_number = -1.37

[[record]]
mutation_key = "C15U G57U C72G U81G"
readout_number = -2.79

[[record]]
mutation_key = "G10A C20U"
readout_number = -1.18

[[record]]
mutation_key = "A5U A18C"
readout_number = -1.31

[[record]]
mutation_key = "A18G C20A C64A A111G U112A"
readout_number = -6.09

[[record]]
mutation_key = "G93A A95G"
readout_number = -1.81

[[record]]
mutation_key = "A29U C62U"
readout_number = -1.3

[[record]]
mutation_key = "G58C C82G U87G G93C C123A"
readout_number = -0.69

[[record]]
mutation_key = "C56U A83G"
readout_number = -0.676

